Where do these numbers come from? They come from patent US20120315267A1.

Molecular target: T1, human Gro-beta (human, UniProt P19875 35-107)
T1 sequence (looked up): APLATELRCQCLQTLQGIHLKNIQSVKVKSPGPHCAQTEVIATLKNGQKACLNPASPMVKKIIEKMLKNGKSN
Assay: cell-based or functional assay
endpointName: FLIPR IC50 (µg/mL)
Report as a plain number; the unit µg/mL is understood.

Identify measured FLIPR IC50 associated with 1L351.17 (antibody, IgG2b, V domains shown) VH: QAYLQQSGAELVRPGASVKMSCKASGYTFTSYNMHWVKQTPRQGLEWIGAIYPGNGDTSYNQKFKGKATLTVDKSSSTAYMQLSSLTSEDSAVYFCARDLYYFDYWGQGTTLTVSS VL: ENVLTQSPAIMSAFPGEKVTMTCRASSSVSSTYLHWYQQKSGASPKLWIYSTSDLASGVPARFSGSGSGTSYSLTISSVEAEDAATYYCQQFSGYPWTFGGGTKLEIK 1.02

Give the value of FLIPR IC50 reported for the following: 17D1.1D2 (antibody, IgG2c, V domains shown) VH: EVQLQQSGPELVKPGASVKISCKASGYTFTDYYMNWLRQSHGKSLEWIGDINPNNGGTNYNQKFKNKATLTVDKSSSTAYMELRSLTSEDSAVFYCAGLGRIFDYWGQGTTLTVSS VL: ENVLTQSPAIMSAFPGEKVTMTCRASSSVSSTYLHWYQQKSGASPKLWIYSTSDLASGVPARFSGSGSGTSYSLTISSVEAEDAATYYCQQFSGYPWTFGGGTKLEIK 81.6
